The values you see were collected from ChEMBL document CHEMBL4414666.

# assay_target: Polyunsaturated fatty acid 5-lipoxygenase (Homo sapiens) (UniProt P09917)
# Sequence (P09917 whole entry): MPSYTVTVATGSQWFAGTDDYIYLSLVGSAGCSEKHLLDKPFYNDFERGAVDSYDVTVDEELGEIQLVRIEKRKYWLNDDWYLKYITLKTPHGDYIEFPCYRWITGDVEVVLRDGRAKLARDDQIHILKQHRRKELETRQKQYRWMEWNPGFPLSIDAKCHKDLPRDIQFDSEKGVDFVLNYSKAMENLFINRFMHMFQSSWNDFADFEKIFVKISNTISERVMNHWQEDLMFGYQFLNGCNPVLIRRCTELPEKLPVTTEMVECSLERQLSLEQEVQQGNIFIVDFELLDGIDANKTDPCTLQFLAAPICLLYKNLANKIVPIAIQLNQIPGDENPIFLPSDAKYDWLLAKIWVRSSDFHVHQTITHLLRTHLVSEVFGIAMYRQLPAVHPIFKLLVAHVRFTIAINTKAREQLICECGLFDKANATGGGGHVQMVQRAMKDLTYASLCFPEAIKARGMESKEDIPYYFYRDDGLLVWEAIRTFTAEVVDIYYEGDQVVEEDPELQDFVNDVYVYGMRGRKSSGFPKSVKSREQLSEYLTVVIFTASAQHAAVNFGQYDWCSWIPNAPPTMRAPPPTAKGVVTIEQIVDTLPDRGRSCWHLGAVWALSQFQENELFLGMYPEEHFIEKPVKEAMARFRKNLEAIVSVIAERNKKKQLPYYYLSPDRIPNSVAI
# assay_details: Inhibition of human recombinant 5-LOX expressed in insect cells assessed residual activity using arachidonic acid at 42 uM as substrate preincubated for 5 mins followed by substrate addition measured after 20 mins in dark by ferric ion oxidation-xylenol orange method relative to control

>  <compound>
C[C@H]1[C@H](C)CC[C@]2(C)CC[C@]3(C)C(=CC[C@@H]4[C@@]5(C)CCC(=O)C(C)(C)[C@@H]5CC[C@]43C)[C@H]12

>  <Activity>
100%

$$$$
>  <compound>
CC1(C)[C@@H](O)CC[C@]2(C)[C@H]3C(=O)C=C4[C@@H]5C[C@@](C)(C(=O)O)CC[C@]5(C)CC[C@@]4(C)[C@]3(C)CC[C@@H]12 [ENOXOLONE]

>  <Activity>
28.3%

$$$$
>  <compound>
C[C@H]1[C@H](C)CC[C@]2(CO)CC[C@]3(C)C(=CC[C@@H]4[C@@]5(C)CC[C@H](O)C(C)(C)[C@@H]5CC[C@]43C)[C@H]12 [UVAOL]

>  <Activity>
45%

$$$$
>  <compound>
CC1(C)CC[C@]2(C)CC[C@]3(C)C(=CC[C@@H]4[C@@]5(C)CC[C@@H](O)[C@](C)(C(=O)O)[C@@H]5CC[C@]43C)[C@@H]2C1

>  <Activity>
48.7%

$$$$
